# assayInfo: Biodistribution in PC-3 tumor-bearing NSG mice (Example 2)
# Format: in vivo
# assayContext: male, NSG (NOD.Cg-Prkdc^scid Il2rg^tm1Wjl/SzJ), mouse, seminal, iv, total radioactivity, 60 MIN BLOCKED, co-injection of 100 μg of [D-Phe^6,Leu-NHEt^13,des-Met^14]Bombesin(6-14); read-out: Biodistribution SEMINAL, Mean
readoutKind: tissue uptake at 1 h (%ID/g)
Entry rule: numbers only, all in %ID/g.

Lookup: Quickly give me recorded tissue uptake at 1 h for CC(C)C[C@@H](CN1CCC[C@H]1C(N)=O)NC(=O)[C@H](Cc1c[nH]cn1)NC(=O)CNC(=O)[C@@H](NC(=O)[C@H](C)NC(=O)[C@H](Cc1c[nH]c2ccccc12)NC(=O)[C@H](CCC(N)=O)NC(=O)[C@@H](Cc1ccccc1)NC(=O)CN1CCC(NC(=O)CN2CCN(CC(=O)O)CCN(CC(=O)O)CCN(CC(=O)O)CC2)CC1)C(C)C [^68Ga-ProBOMB2, metal not drawn]
Found: 1.95

###

# assayInfo: Biodistribution in PC-3 tumor-bearing NSG mice (Example 2)
# Format: in vivo
# assayContext: male, NSG (NOD.Cg-Prkdc^scid Il2rg^tm1Wjl/SzJ), mouse, tumor/blood, iv, total radioactivity, 60 MIN p.i.; read-out: TUMOR-TO-BLOOD ratio, Mean
readoutKind: tissue to tissue ratio at 1 h
// return just the number, without any unit appended

Lookup: Quickly give me recorded tissue to tissue ratio at 1 h for CC(C)C[C@@H](CN1CCC[C@H]1C(N)=O)NC(=O)[C@H](Cc1c[nH]cn1)NC(=O)CNC(=O)[C@@H](NC(=O)[C@H](C)NC(=O)[C@H](Cc1c[nH]c2ccccc12)NC(=O)[C@H](CCC(N)=O)NC(=O)[C@@H](Cc1ccccc1)NC(=O)CN1CCC(NC(=O)CN2CCN(CC(=O)O)CCN(CC(=O)O)CCN(CC(=O)O)CC2)CC1)C(C)C [^68Ga-ProBOMB2, metal not drawn]
Found: 22.2

###

# assayInfo: Biodistribution in PC-3 tumor-bearing NRG mice (Example 1)
# Format: in vivo
# assayContext: male, NRG (NOD.Cg-Rag1tm1Mom Il2rgtm1Wjl/SzJ), mouse, kidney, iv, 1.84 MBq, total radioactivity; 30 min p.i.; read-out: Biodistribution Kidney, Mean
readoutKind: tissue uptake at 0.5 h (%ID/g)
Entry rule: numbers only, all in %ID/g.

Lookup: Quickly give me recorded tissue uptake at 0.5 h for CC(C)C[C@@H](CN1CCC[C@H]1C(N)=O)NC(=O)[C@H](Cc1c[nH]cn1)NC(=O)CNC(=O)[C@@H](NC(=O)[C@H](C)NC(=O)[C@H](Cc1c[nH]c2ccccc12)NC(=O)[C@H](CCC(N)=O)NC(=O)[C@@H](Cc1ccccc1)NC(=O)COCC(=O)Nc1ccc(CNC(=O)CN2CCN(CC(=O)O)CCN(CC(=O)O)CCN(CC(=O)O)CC2)cc1)C(C)C [^68Ga-ProBOMB1, metal not drawn]
Found: 2.83

###

# assayInfo: Biodistribution in PC-3 tumor-bearing NSG mice (Example 2)
# Type: in vivo
# assayContext: male, NSG (NOD.Cg-Prkdc^scid Il2rg^tm1Wjl/SzJ), mouse, fat, iv, total radioactivity, 60 MIN BLOCKED, co-injection of 100 μg of [D-Phe^6,Leu-NHEt^13,des-Met^14]Bombesin(6-14); read-out: Biodistribution FAT, Mean
readoutKind: tissue uptake at 1 h (%ID/g)
Entry rule: numbers only, all in %ID/g.

Lookup: Quickly give me recorded tissue uptake at 1 h for CC(C)C[C@@H](CN1CCC[C@H]1C(N)=O)NC(=O)[C@H](Cc1c[nH]cn1)NC(=O)CNC(=O)[C@@H](NC(=O)[C@H](C)NC(=O)[C@H](Cc1c[nH]c2ccccc12)NC(=O)[C@H](CCC(N)=O)NC(=O)[C@@H](Cc1ccccc1)NC(=O)CN1CCC(NC(=O)CN2CCN(CC(=O)O)CCN(CC(=O)O)CCN(CC(=O)O)CC2)CC1)C(C)C [^68Ga-ProBOMB2, metal not drawn]
Found: 0.08
